All values here come from patent US4650803A.

Assay: Rat plasma stability study (37.5° C.)
Format: in vitro ADME, Sprague-Dawley male albino rats
Settings: rat, plasma, 100 μg/ml, read-out: t1/2 (plasma stability) (converted)
Property: half-life; scope: individual compounds
The answer is to be given in h; state only the numeric part.

CCN(CC)CCC(=O)O[C@@H]1/C(C)=C/[C@@H](C)C(=O)C[C@@H]([C@H](C)C[C@@H]2CC[C@@H](O)[C@H](OC)C2)OC(=O)[C@@H]2CCCCN2C(=O)C(=O)[C@]2(O)O[C@@H](CC[C@H]2C)C[C@H](OC)/C(C)=C/C=C/C=C/[C@@H](C)C[C@@H](C)C(=O)[C@@H]1OC [Example 3] :: 58

Given the compound CO[C@H]1C[C@@H]2CC[C@@H](C)[C@@](O)(O2)C(=O)C(=O)N2CCCC[C@H]2C(=O)O[C@H]([C@H](C)C[C@@H]2CC[C@@H](O)[C@H](OC)C2)CC(=O)[C@H](C)/C=C(\C)[C@@H](OC(=O)CN(C)C)[C@@H](OC)C(=O)[C@H](C)C[C@H](C)/C=C/C=C/C=C/1C [Example 2] , what is its reported half-life?
1.8
